# protocol: Compound 1 single dose mouse PK study
# Assay type: in vivo, male CD-1 mice
# settings: male, CD-1, plasma, single iv dose 2 mg/kg, maximum observed concentration at first time point
measured-quantity: Cmax (ng/mL)
Field: numeric (ng/mL). Do not append units.

Which measured Cmax value corresponds to CC(=O)N1CCc2c(C(=O)N3CCC(c4ccc(F)c(F)c4C(F)(F)F)CC3)n[nH]c2C1 ?
1460

---

# protocol: Compound 2 single dose rat PK study
# Format: in vivo, male Sprague Dawley rats
# settings: male, Sprague Dawley, plasma, iv, 2 mg/kg, single iv dose 2 mg/kg, Mean of the 3 rats
measured-quantity: AUC(0-inf) (ng·h/mL)
Numbers only; they are read as ng·h/mL.

I have this molecule here, CC(=O)N1Cc2[nH]nc(C(=O)N3CCC(c4ccc(F)c(F)c4C(F)(F)F)CC3)c2C1 [Compound 2] , and I need its recorded AUC(0-inf).
5750

---

# protocol: Compound 1 single dose mouse PK study
# Type: in vivo, male CD-1 mice
# settings: male, CD-1, plasma, single iv dose 2 mg/kg
measured-quantity: clearance (mL/min/kg)
Give the quantity in mL/min/kg, number only.

What measured clearance goes with CC(=O)N1CCc2c(C(=O)N3CCC(c4ccc(F)c(F)c4C(F)(F)F)CC3)n[nH]c2C1 [Compound 1] ?
13.5

---

# protocol: Compound 1 single dose rat PK study
# Type: in vivo, male Sprague Dawley rats
# settings: male, Sprague Dawley, plasma, po, 5 mg/kg, single po dose 5 mg/kg, Mean of the 3 rats, read-out: Cmax
measured-quantity: Cmax (ng/mL)
Supply the numeric figure in ng/mL, leaving out any unit text.

Would you mind telling me what Cmax value was observed for CC(=O)N1CCc2c(C(=O)N3CCC(c4ccc(F)c(F)c4C(F)(F)F)CC3)n[nH]c2C1 ?
390

---

# protocol: Compound 1 single dose rat PK study
# Format: in vivo, male Sprague Dawley rats
# settings: male, Sprague Dawley, plasma, iv, 2 mg/kg, single iv dose 2 mg/kg, Mean of the 3 rats, read-out: Vss
# Protocol: A pharmacokinetic study of Compound 1 following a single intravenous or oral dose administration to male Sprague Dawley rats was conducted, the results of which are found in Table 3 and FIGS. 9-14.
measured-quantity: Vd (L/kg)
Give the value in L/kg but do not write L/kg after it.

Consider the compound CC(=O)N1CCc2c(C(=O)N3CCC(c4ccc(F)c(F)c4C(F)(F)F)CC3)n[nH]c2C1 and give its measured Vd.
1.68

---

# protocol: Compound 1 single dose mouse PK study
# Format: in vivo, male CD-1 mice
# settings: male, CD-1, plasma, single iv dose 2 mg/kg
measured-quantity: half-life (min)
Please give a number only; it is taken to be in min.

Name the recorded half-life for CC(=O)N1CCc2c(C(=O)N3CCC(c4ccc(F)c(F)c4C(F)(F)F)CC3)n[nH]c2C1 .
126

---

# protocol: Compound 1 single dose non-human primate PK study
# Format: in vivo, Cynomolgus Macaques
# settings: cynomolgus monkey, plasma, po, 5 mg/kg, NHP, single po dose 5 mg/kg, individual animals; read-out: Tmax
# Method: A pharmacokinetic study of Compound 1 following a single intravenous or oral dose administration to non-human primates (Cynomolgus Macaques) was conducted, the results of which are found in Table 2 and FIGS. 1-8.
measured-quantity: Tmax
Answer shape: numeric part, then the unit.

Tmax for CC(=O)N1CCc2c(C(=O)N3CCC(c4ccc(F)c(F)c4C(F)(F)F)CC3)n[nH]c2C1 ?
1 h

---

# protocol: Compound 1 single dose non-human primate PK study
# Format: in vivo, Cynomolgus Macaques
# settings: cynomolgus monkey, plasma, iv, 1 mg/kg, NHP, single iv dose 1 mg/kg, individual animals
measured-quantity: clearance (mL/min/kg)
State just the number; it will be interpreted in mL/min/kg.

Which value of clearance has been reported for CC(=O)N1CCc2c(C(=O)N3CCC(c4ccc(F)c(F)c4C(F)(F)F)CC3)n[nH]c2C1 [Compound 1] in the records?
4.02

---

# protocol: Compound 2 single dose rat PK study
# Assay type: in vivo, male Sprague Dawley rats
# settings: male, Sprague Dawley, plasma, po, 5 mg/kg, single po dose 5 mg/kg, individual rats
measured-quantity: half-life (h)
Give the number; h is assumed, so skip it.

Entry CC(=O)N1Cc2[nH]nc(C(=O)N3CCC(c4ccc(F)c(F)c4C(F)(F)F)CC3)c2C1 has what half-life?
10.9

---

# protocol: Compound 1 single dose rat PK study
# Format: in vivo, male Sprague Dawley rats
# settings: male, Sprague Dawley, plasma, po, 5 mg/kg, single po dose 5 mg/kg, Mean of the 3 rats
measured-quantity: AUC(0-inf) (ng·h/mL)
Response body: numeric value in ng·h/mL, unit text excluded.

# input molecule: CC(=O)N1CCc2c(C(=O)N3CCC(c4ccc(F)c(F)c4C(F)(F)F)CC3)n[nH]c2C1 ; wanted: its AUC(0-inf)
2680

---

# protocol: Compound 1 single dose rat PK study
# Assay type: in vivo, male Sprague Dawley rats
# settings: male, Sprague Dawley, plasma, iv, 2 mg/kg, single iv dose 2 mg/kg, individual rats
measured-quantity: MRT last (h)
Field format: number, assumed h, no unit text.

Look at this compound and give its reported MRT last. CC(=O)N1CCc2c(C(=O)N3CCC(c4ccc(F)c(F)c4C(F)(F)F)CC3)n[nH]c2C1 [Compound 1]
2.8

---

# protocol: Compound 1 single dose rat PK study
# Format: in vivo, male Sprague Dawley rats
# settings: male, Sprague Dawley, plasma, po, 5 mg/kg, single po dose 5 mg/kg, individual rats
measured-quantity: AUC(0-inf) (ng·h/mL)
All answers are understood in ng·h/mL, so give the number only.

If you can, please state the reported AUC(0-inf) value of CC(=O)N1CCc2c(C(=O)N3CCC(c4ccc(F)c(F)c4C(F)(F)F)CC3)n[nH]c2C1 .
3210

---

# protocol: Compound 2 single dose rat PK study
# Type: in vivo, male Sprague Dawley rats
# settings: male, Sprague Dawley, plasma, iv, 2 mg/kg, single iv dose 2 mg/kg, Mean of the 3 rats
# Experimental: A pharmacokinetic study of Compound 2 following a single intravenous or oral dose administration to male Sprague Dawley rats was conducted, the results of which are found in Table 5 and FIGS. 21-24.
measured-quantity: half-life

Which half-life is reported for this compound? CC(=O)N1Cc2[nH]nc(C(=O)N3CCC(c4ccc(F)c(F)c4C(F)(F)F)CC3)c2C1 [Compound 2]
6.6 h

---

# protocol: Compound 1 single dose rat PK study
# Assay type: in vivo, male Sprague Dawley rats
# settings: male, Sprague Dawley, plasma, po, 5 mg/kg, single po dose 5 mg/kg, individual rats
measured-quantity: MRT last (h)
Number in h, nothing else.

Consider the compound CC(=O)N1CCc2c(C(=O)N3CCC(c4ccc(F)c(F)c4C(F)(F)F)CC3)n[nH]c2C1 and give its measured MRT last.
8

---

# protocol: Compound 1 single dose mouse PK study
# Type: in vivo, male CD-1 mice
# settings: male, CD-1, plasma, single po dose 5 mg/kg
measured-quantity: AUC(0-inf) (ng·h/mL)
API: value field is a number in ng·h/mL; no unit string.

What does the record list as AUC(0-inf) for CC(=O)N1CCc2c(C(=O)N3CCC(c4ccc(F)c(F)c4C(F)(F)F)CC3)n[nH]c2C1 ?
1810

---

# protocol: Compound 2 single dose rat PK study
# Assay type: in vivo, male Sprague Dawley rats
# settings: male, Sprague Dawley, plasma, po, 5 mg/kg, single po dose 5 mg/kg, individual rats
measured-quantity: MRT last

I would be grateful if you could share the reported MRT last for CC(=O)N1Cc2[nH]nc(C(=O)N3CCC(c4ccc(F)c(F)c4C(F)(F)F)CC3)c2C1 [Compound 2] .
4.5 h

---

# protocol: Compound 1 single dose mouse PK study
# Type: in vivo, male CD-1 mice
# settings: male, CD-1, plasma, single po dose 5 mg/kg
measured-quantity: Tmax

Tmax lookup needed for CC(=O)N1CCc2c(C(=O)N3CCC(c4ccc(F)c(F)c4C(F)(F)F)CC3)n[nH]c2C1 [Compound 1] , thanks.
15 min

---

# protocol: Compound 1 single dose non-human primate PK study
# Assay type: in vivo, Cynomolgus Macaques
# settings: cynomolgus monkey, plasma, po, 5 mg/kg, NHP, single po dose 5 mg/kg, individual animals; read-out: Cmax
measured-quantity: Cmax
Include the unit right after the number.

Quick one: Cmax for CC(=O)N1CCc2c(C(=O)N3CCC(c4ccc(F)c(F)c4C(F)(F)F)CC3)n[nH]c2C1 [Compound 1] ?
485 ng/mL

---

# protocol: Compound 1 single dose non-human primate PK study
# Assay type: in vivo, Cynomolgus Macaques
# settings: cynomolgus monkey, plasma, iv, 1 mg/kg, NHP, single iv dose 1 mg/kg, individual animals
measured-quantity: AUC(0-t) (ng·h/mL)
# value in ng·h/mL; strip the unit string

Return reported AUC(0-t); argument: CC(=O)N1CCc2c(C(=O)N3CCC(c4ccc(F)c(F)c4C(F)(F)F)CC3)n[nH]c2C1 [Compound 1]
4110
